experimental-system: VIM-1 (Pseudomonas aeruginosa (strain ATCC 15692 / DSM 22644 / CIP 104116 / JCM 14847 / LMG 12228 / 1C / PRS 101 / PAO1))
test-summary: biochemical
test-context: fluorescence assay, CCF2-FA substrate, 30 pM enzyme, 2 hours at 25° C.; read-out: VIM-1 IC50
Would you kindly list IC50 for each of these compounds?
One number for each entry, in nM.

Solved entries (count: 3):
• Nc1nc2c(-c3ccc(S(=O)(=O)NC[C@@H](N)C(=O)O)c(S(N)(=O)=O)c3-c3nn[nH]n3)cccc2s1 = 0.28
• Nc1nc2c(-c3ccc(S(=O)(=O)N4CC5C(N)C5C4)c(S(N)(=O)=O)c3-c3nnn[nH]3)cccc2s1.O=C(O)C(F)(F)F (stereo not shown) = 0.773
• NC[C@@H](CO)NS(=O)(=O)c1ccc(-c2ccc(N)nc2)c(-c2nn[nH]n2)c1S(N)(=O)=O = 0.184

Okay, next one:
The recorded IC50 for entry Cn1cnc(CNS(=O)(=O)c2ccc(-c3cccc4sc(N)nc34)c(-c3nnn[nH]3)c2S(N)(=O)=O)n1 equals 0.494

====

experimental-system: VIM-1 (Pseudomonas aeruginosa (strain ATCC 15692 / DSM 22644 / CIP 104116 / JCM 14847 / LMG 12228 / 1C / PRS 101 / PAO1), UniProt A0A0F7KYQ8)
test-summary: biochemical
test-context: fluorescence assay, CCF2-FA substrate, 30 pM enzyme, 2 hours at 25° C.; read-out: VIM-1 IC50
Answer each item with its documented IC50.
Give bare numbers, in pM.

The examples below pair each entry with its known result.
• C[C@H](CN)NS(=O)(=O)c1ccc(-c2ccnc(N)c2)c(-c2nn[nH]n2)c1S(N)(=O)=O = 133
• NS(=O)(=O)c1ccc(-c2cccc3cn[nH]c23)c(-c2nn[nH]n2)c1S(N)(=O)=O = 258
• NCc1nc2cc(-c3ccc(S(=O)(=O)NC[C@H](O)CN)c(S(N)(=O)=O)c3-c3nn[nH]n3)ccc2[nH]1 = 198

Documented IC50 of Cc1ccc(-c2ccc(S(=O)(=O)NCCN)c(S(N)(=O)=O)c2-c2nn[nH]n2)c2nc(N)[nH]c12 : 43

====

experimental-system: IMP-1 (Serratia marcescens, UniProt P52699)
Sequence (P52699 whole entry, looked up, species assumed): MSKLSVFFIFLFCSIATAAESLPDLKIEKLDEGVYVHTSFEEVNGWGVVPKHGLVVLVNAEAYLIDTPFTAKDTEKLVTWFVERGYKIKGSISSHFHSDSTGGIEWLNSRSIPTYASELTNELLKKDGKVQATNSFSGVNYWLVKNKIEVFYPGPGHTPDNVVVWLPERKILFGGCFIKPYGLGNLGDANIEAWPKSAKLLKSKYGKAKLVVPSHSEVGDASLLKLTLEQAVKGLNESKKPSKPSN
test-summary: biochemical
Format: biochemical
test-context: fluorescence assay, CCF2-FA substrate, 2 pM enzyme, 2 hours at 25° C.; read-out: IMP-1 IC50
pIC50: −log10 of the molar value.
Kind request: treat 9 as inclusive, so pIC50 at 9 or higher is y, anything lower is n.

Q. Confirm if pIC50 reported for the molecule CC(N)CNS(=O)(=O)c1ccc(-c2cccc3sc(N)nc23)c(-c2nnn[nH]2)c1S(N)(=O)=O.O=C(O)C(F)(F)F (stereo not shown) [Example 109, 2,2,2-trifluoroacetate] is 9 or above.
A. y

Q. # check: pIC50 of NC[C@H](CO)NS(=O)(=O)c1ccc(-c2cccc3nc(N)[nH]c23)c(-c2nn[nH]n2)c1S(N)(=O)=O [Example 427] is greater than or equal to 9
A. n

Q. Does pIC50 meet or surpass 9 for NC[C@H](O)CNS(=O)(=O)c1ccc(-c2cccc3[nH]cnc23)c(-c2nn[nH]n2)c1S(N)(=O)=O [Example 307] ?
A. y

Q. Is pIC50 at least 9? Consider NCC1CCCCN1S(=O)(=O)c1ccc(-c2cccc3sc(N)nc23)c(-c2nnn[nH]2)c1S(N)(=O)=O.O=C(O)C(F)(F)F (stereo not shown) [Example 110, 2,2,2-trifluoroacetate]
A. y

Q. Dear colleague, could you confirm whether Nc1nc2c(-c3ccc(S(=O)(=O)NC[C@]4(N)CCNC4)c(S(N)(=O)=O)c3-c3nn[nH]n3)cccc2s1 [Example 366] has pIC50 at or above 9?
A. y

Q. Please indicate if the recorded pIC50 for Nc1nc2c(-c3ccc(S(=O)(=O)N[C@H]4CCCNC4)c(S(N)(=O)=O)c3-c3nnn[nH]3)cccc2s1 [Example 67] meets or exceeds 9.
A. y

Q. Reported pIC50 at or above 9? NCCNS(=O)(=O)c1ccc(-c2cccc3[nH]c([C@H](N)CN)nc23)c(-c2nn[nH]n2)c1S(N)(=O)=O [Example 335]
A. n

Q. Kindly determine if pIC50 recorded for NS(=O)(=O)c1c(S(=O)(=O)N[C@@H]2CCNC2)ccc(-c2cccc(-c3nc[nH]n3)c2)c1-c1nn[nH]n1 [Example 225] is above or exactly 9.
A. y

====

Assignment: determine reported pIC50 for the given molecules.
experimental-system: NDM-1 (Klebsiella pneumoniae, UniProt C7C422)
Sequence (C7C422 whole entry, looked up, species assumed): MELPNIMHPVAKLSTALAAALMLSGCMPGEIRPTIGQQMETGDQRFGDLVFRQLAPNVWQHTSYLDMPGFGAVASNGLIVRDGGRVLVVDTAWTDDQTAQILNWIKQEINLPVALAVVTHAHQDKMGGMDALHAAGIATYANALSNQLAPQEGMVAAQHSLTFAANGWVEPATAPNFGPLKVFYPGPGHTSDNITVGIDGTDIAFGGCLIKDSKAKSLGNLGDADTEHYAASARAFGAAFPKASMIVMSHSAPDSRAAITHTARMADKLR
test-summary: biochemical
Assay type: biochemical
test-context: fluorescence assay, CCF2-FA substrate, 1 pM enzyme, 2 hours at 25° C.; read-out: NDM-1 IC50
Give bare numbers, as −log10 of the molar value.

- Nc1ccc(-c2ccc(S(=O)(=O)N[C@@H]3CNC[C@@H]3N)c(S(N)(=O)=O)c2-c2nn[nH]n2)cn1: 9.48
- C[C@H](N)CNS(=O)(=O)c1ccc(-c2ccc(N)nc2)c(-c2nn[nH]n2)c1S(N)(=O)=O: 9.65

Required: pIC50, one value per molecule below.
1. Nc1nc2c(-c3ccc(S(=O)(=O)N4CCNCC4)c(S(N)(=O)=O)c3-c3nn[nH]n3)cccc2o1
2. Nc1nc2c(-c3ccc(S(=O)(=O)NC4CC5CNC4C5)c(S(N)(=O)=O)c3-c3nnn[nH]3)cccc2s1 (stereo not shown) [Example 88]
3. Nc1nc2c(-c3ccc(S(=O)(=O)N[C@@H]4CCCNC4)c(S(N)(=O)=O)c3-c3nnn[nH]3)cccc2[nH]1
4. Nc1nc2c(-c3ccc(S(=O)(=O)N[C@H]4CCNC4)c(S(N)(=O)=O)c3-c3nn[nH]n3)cccc2[nH]1
5. NCCNS(=O)(=O)c1ccc(-c2cccc(C(=O)NC[C@H](O)CN)c2)c(-c2nn[nH]n2)c1S(N)(=O)=O

A.
1: 9.71; 2: 10.69; 3: 10.19; 4: 10.22; 5: 8.83

Provide reported pIC50 for each item, in the same order as listed.
1. Nc1nc2c(-c3ccc(S(=O)(=O)NC[C@@]4(N)CCNC4)c(S(N)(=O)=O)c3-c3nn[nH]n3)cccc2s1
2. CN1CCC(N(C)S(=O)(=O)c2ccc(-c3cccc4sc(N)nc34)c(-c3nnn[nH]3)c2S(N)(=O)=O)C1 (stereo not shown)

A.
1. 10.71
2. 9.72

Working through the 5 molecules below one at a time, give pIC50 for each.
1. NC[C@@H](N)CNS(=O)(=O)c1ccc(-c2cccc(-c3n[nH]c(N)n3)c2)c(-c2nn[nH]n2)c1S(N)(=O)=O
2. CN1CCC(NS(=O)(=O)c2ccc(-c3cccc4sc(N)nc34)c(-c3nnn[nH]3)c2S(N)(=O)=O)C1 (stereo not shown)
3. NC[C@H](CO)NS(=O)(=O)c1ccc(-c2ccnc(N)c2)c(-c2nn[nH]n2)c1S(N)(=O)=O
4. NS(=O)(=O)c1c(S(=O)(=O)N[C@@H]2CCNC2)ccc(-c2cccn3ccnc23)c1-c1nn[nH]n1
5. C[N+](C)(C)CCCNS(=O)(=O)c1ccc(-c2cccc3sc(N)nc23)c(-c2nnn[nH]2)c1S(N)(=O)=O.O=C([O-])C(F)(F)F [Example 392, trifluoroacetate]

A.
1: 10.23; 2: 10.38; 3: 8.51; 4: 10.30; 5: 10.50

====

System: Pseudomonas aeruginosa MB9798 vs MB9799
test-context: ratio MITC95 PA_9798/MITC95 PA_9799
recorded-metric: Efflux ratio
One number for each entry.

Would you please look over these solved cases?
* Nc1nc2c(-c3ccc(S(=O)(=O)NC[C@]4(N)CCNC4)c(S(N)(=O)=O)c3-c3nn[nH]n3)cccc2s1 [Example 366] | 1.00
* Nc1nc2c(-c3ccc(S(=O)(=O)NC4C[C@@H]5CN[C@H]4C5)c(S(N)(=O)=O)c3-c3nnn[nH]3)cccc2s1.O=CO (stereo partly shown) [Example 119] | 0.50
* Nc1nc2c(-c3ccc(S(=O)(=O)N4CC(N)C4)c(S(N)(=O)=O)c3-c3nn[nH]n3)cccc2s1 [Example 147] | 1.00
* Cc1ccc(-c2ccc(S(=O)(=O)N[C@@H]3CCNC3)c(S(N)(=O)=O)c2-c2nn[nH]n2)c2nc(N)[nH]c12 [Example 285] | 1.00
* Nc1nc2c(-c3ccc(S(=O)(=O)N4CCC[C@H](N)C4)c(S(N)(=O)=O)c3-c3nnn[nH]3)cccc2s1 [Example 66] | 2.00
* NS(=O)(=O)c1c(S(=O)(=O)N[C@@H]2CCNC2)ccc(-c2cccc3cn[nH]c23)c1-c1nnn[nH]1 [Example 139] | 1.00

Now turn to the next molecule.
The measured Efflux ratio associated with Nc1nc2c(-c3ccc(S(=O)(=O)NCCO)c(S(N)(=O)=O)c3-c3nn[nH]n3)cccc2s1 [Example 144] reads 1.00
